Conditions: in methanol, 298.15 K
reportedProperty: solubility (mole fraction)

In [3]: df
Out[3]:
                testsmiles  assayresult
0  CC1=NN(c2ccccc2)C(=O)C1       0.0238

###

Details: in ethanol, 283.15 K
reportedProperty: solubility (mole fraction)

>>> df
                testsmiles  assayresult
0  CC1=NN(c2ccccc2)C(=O)C1       0.0226

###

Details: in acetonitrile, 313.15 K
reportedProperty: solubility (mole fraction)

>>> df
                testsmiles  assayresult
0  CC1=NN(c2ccccc2)C(=O)C1       0.0314

###

Conditions: in methanol, 278.15 K
reportedProperty: solubility (mole fraction)

                testsmiles            reportedproperty  assayresult
0  CC1=NN(c2ccccc2)C(=O)C1  solubility (mole fraction)        0.013

###

Conditions: in ethyl acetate, 293.15 K
reportedProperty: solubility (mole fraction)

>>> print(df.to_string())
                testsmiles            reportedproperty  assayresult
0  CC1=NN(c2ccccc2)C(=O)C1  solubility (mole fraction)       0.0253

###

Conditions: in acetonitrile, 293.15 K
reportedProperty: solubility (mole fraction)

>>> df
                testsmiles            reportedproperty  assayresult
0  CC1=NN(c2ccccc2)C(=O)C1  solubility (mole fraction)       0.0144

###

Conditions: in acetonitrile, 278.15 K
reportedProperty: solubility (mole fraction)

                testsmiles  assayresult
0  CC1=NN(c2ccccc2)C(=O)C1      0.00717

###

Details: in n-propanol, 278.15 K
reportedProperty: solubility (mole fraction)

>>> print(df.to_string())
                testsmiles            reportedproperty  assayresult
0  CC1=NN(c2ccccc2)C(=O)C1  solubility (mole fraction)       0.0222

###

Conditions: in methanol, 313.15 K
reportedProperty: solubility (mole fraction)

>>> df
                testsmiles  assayresult
0  CC1=NN(c2ccccc2)C(=O)C1       0.0354

###

Details: in methanol, 288.15 K
reportedProperty: solubility (mole fraction)

In [3]: df
Out[3]:
                testsmiles  assayresult
0  CC1=NN(c2ccccc2)C(=O)C1       0.0179

###

Conditions: in ethanol, 303.15 K
reportedProperty: solubility (mole fraction)

                testsmiles            reportedproperty  assayresult
0  CC1=NN(c2ccccc2)C(=O)C1  solubility (mole fraction)       0.0358

###

Settings: in ethyl acetate, 313.15 K
reportedProperty: solubility (mole fraction)

>>> print(df.to_string())
                testsmiles  assayresult
0  CC1=NN(c2ccccc2)C(=O)C1       0.0419

###

Conditions: in ethanol, 273.15 K
reportedProperty: solubility (mole fraction)

>>> print(df.to_string())
                testsmiles  assayresult
0  CC1=NN(c2ccccc2)C(=O)C1       0.0172

###

Settings: in methanol, 308.15 K
reportedProperty: solubility (mole fraction)

>>> print(df.to_string())
                testsmiles  assayresult
0  CC1=NN(c2ccccc2)C(=O)C1       0.0312

###

Conditions: in n-propanol, 313.15 K
reportedProperty: solubility (mole fraction)

>>> print(df.to_string())
                testsmiles  assayresult
0  CC1=NN(c2ccccc2)C(=O)C1       0.0472

###

Details: in methanol, 283.15 K
reportedProperty: solubility (mole fraction)

>>> df
                testsmiles  assayresult
0  CC1=NN(c2ccccc2)C(=O)C1       0.0153

###

Details: in n-propanol, 288.15 K
reportedProperty: solubility (mole fraction)

                testsmiles  assayresult
0  CC1=NN(c2ccccc2)C(=O)C1        0.028

###

Conditions: in n-propanol, 308.15 K
reportedProperty: solubility (mole fraction)

                testsmiles  assayresult
0  CC1=NN(c2ccccc2)C(=O)C1       0.0433

###

Conditions: in acetonitrile, 288.15 K
reportedProperty: solubility (mole fraction)

In [3]: df
Out[3]:
                testsmiles  assayresult
0  CC1=NN(c2ccccc2)C(=O)C1       0.0116

###

Conditions: in acetonitrile, 298.15 K
reportedProperty: solubility (mole fraction)

>>> df
                testsmiles  assayresult
0  CC1=NN(c2ccccc2)C(=O)C1        0.018

###

Settings: in n-propanol, 298.15 K
reportedProperty: solubility (mole fraction)

In [3]: df
Out[3]:
                testsmiles  assayresult
0  CC1=NN(c2ccccc2)C(=O)C1       0.0353

###

Details: in ethyl acetate, 283.15 K
reportedProperty: solubility (mole fraction)

>>> df
                testsmiles  assayresult
0  CC1=NN(c2ccccc2)C(=O)C1       0.0196

###

Conditions: in ethyl acetate, 288.15 K
reportedProperty: solubility (mole fraction)

>>> print(df.to_string())
                testsmiles  assayresult
0  CC1=NN(c2ccccc2)C(=O)C1       0.0223

###

Conditions: in n-propanol, 303.15 K
reportedProperty: solubility (mole fraction)

                testsmiles  assayresult
0  CC1=NN(c2ccccc2)C(=O)C1       0.0393

###

Conditions: in ethanol, 278.15 K
reportedProperty: solubility (mole fraction)

In [3]: df
Out[3]:
                testsmiles  assayresult
0  CC1=NN(c2ccccc2)C(=O)C1       0.0197

###

Conditions: in methanol, 273.15 K
reportedProperty: solubility (mole fraction)

In [3]: df
Out[3]:
                testsmiles  assayresult
0  CC1=NN(c2ccccc2)C(=O)C1       0.0108

###

Conditions: in ethanol, 293.15 K
reportedProperty: solubility (mole fraction)

>>> df
                testsmiles  assayresult
0  CC1=NN(c2ccccc2)C(=O)C1       0.0285

###

Details: in ethanol, 298.15 K
reportedProperty: solubility (mole fraction)

                testsmiles  assayresult
0  CC1=NN(c2ccccc2)C(=O)C1       0.0321

###

Settings: in acetonitrile, 308.15 K
reportedProperty: solubility (mole fraction)

In [3]: df
Out[3]:
                testsmiles  assayresult
0  CC1=NN(c2ccccc2)C(=O)C1       0.0265

###

Settings: in n-propanol, 293.15 K
reportedProperty: solubility (mole fraction)

In [3]: df
Out[3]:
                testsmiles  assayresult
0  CC1=NN(c2ccccc2)C(=O)C1       0.0317
